assay: Clearance in rat at 0.5 mg/kg, iv; type: ADME, organism-based; conditions: in vivo
// assign Condition met if clearance falls strictly below 30 mL/min/kg, else Condition not met (ties count as Condition not met)

>  <MOLECULAR_STRING>
CNC(=O)Nc1cc(Oc2cncc(OC)c2)c([C@H]2COCC[C@@H]2F)cn1

>  <QUALITATIVE_LABEL>
Condition met

$$$$
>  <MOLECULAR_STRING>
CNC(=O)Nc1cc(Oc2cncc(OC)c2)c(C2=CCCOC2)cn1

>  <QUALITATIVE_LABEL>
Condition not met

$$$$
>  <MOLECULAR_STRING>
CNC(=O)Nc1cc(Oc2cncc(OC)c2)c(C2=CCOCC2)cn1

>  <QUALITATIVE_LABEL>
Condition not met

$$$$
>  <MOLECULAR_STRING>
CNC(=O)Nc1cc(Oc2cncc(OC)c2)c(C2CCOCC2)cn1

>  <QUALITATIVE_LABEL>
Condition not met

$$$$
>  <MOLECULAR_STRING>
CNC(=O)Nc1cc(Oc2cncc(C)c2)c([C@H]2C[C@@H](O)C2)cn1

>  <QUALITATIVE_LABEL>
Condition met

$$$$

----------
Recorded S0.5 by entry
biological target: Hexokinase-4 (Homo sapiens); test: Activation of human recombinant glucokinase assessed as enzyme affinity for glucose […] as substrate in presence of NAD+ by glucose 6-phosphate dehydrogenase coupled assay
Sequence (P35557 whole entry): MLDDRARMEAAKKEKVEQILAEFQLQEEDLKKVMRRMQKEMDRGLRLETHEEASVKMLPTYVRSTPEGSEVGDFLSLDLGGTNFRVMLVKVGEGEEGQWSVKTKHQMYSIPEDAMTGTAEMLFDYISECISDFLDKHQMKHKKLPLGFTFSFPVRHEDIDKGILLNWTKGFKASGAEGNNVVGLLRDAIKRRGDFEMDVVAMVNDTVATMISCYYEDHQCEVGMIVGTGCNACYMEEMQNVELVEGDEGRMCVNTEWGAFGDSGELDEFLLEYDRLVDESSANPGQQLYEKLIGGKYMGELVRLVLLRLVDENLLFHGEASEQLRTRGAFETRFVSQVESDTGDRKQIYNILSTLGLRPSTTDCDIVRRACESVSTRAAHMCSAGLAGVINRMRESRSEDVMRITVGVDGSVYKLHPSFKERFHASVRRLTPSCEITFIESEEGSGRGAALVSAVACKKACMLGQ

>  <MOLECULAR_STRING>
CNC(=O)Nc1cc(Oc2cncc(C)c2)c([C@H]2C[C@@H](CO)C2)cn1

>  <S0.5 / mM>
0.57

$$$$
>  <MOLECULAR_STRING>
CNC(=O)Nc1cc(Oc2cncc(OC)c2)c([C@@H]2CCCN(C)C2)cn1

>  <S0.5 / mM>
0.73

$$$$
>  <MOLECULAR_STRING>
CNC(=O)Nc1cc(Oc2cncc(C)c2)c([C@H]2C[C@](C)(O)C2)cn1

>  <S0.5 / mM>
0.7

$$$$
>  <MOLECULAR_STRING>
CNC(=O)Nc1cc(Oc2cncc(OC)c2)c(C2=CCOCC2)cn1

>  <S0.5 / mM>
0.82

$$$$

----------
assay: Half life in rat at 0.5 mg/kg, iv; type: ADME, organism-based; details: in vivo
REPORTED_ENDPOINT: half-life (h)

>  <MOLECULAR_STRING>
CNC(=O)Nc1cc(Oc2cncc(C)c2)c(-c2ccc(OCC(C)(C)O)nc2)cn1

>  <REPORTED_ENDPOINT>
half-life

>  <UNIT_TEXT>
h

>  <NUMERIC_RESULT>
2.3

$$$$
>  <MOLECULAR_STRING>
CNC(=O)Nc1cc(Oc2cncc(OC)c2)c([C@H]2CCCOC2)cn1

>  <REPORTED_ENDPOINT>
half-life

>  <UNIT_TEXT>
h

>  <NUMERIC_RESULT>
0.3

$$$$
>  <MOLECULAR_STRING>
CNC(=O)Nc1cc(Oc2cncc(C)c2)c([C@H]2C[C@@H](O)C2)cn1

>  <REPORTED_ENDPOINT>
half-life

>  <UNIT_TEXT>
h

>  <NUMERIC_RESULT>
3

$$$$

----------
Recorded log10 of EC50 by entry
molecular target: UniProt P35557; test: Activation of human recombinant glucokinase using 5 mM glucose as substrate in presence of NAD+ and 4% HSA by glucose 6-phosphate dehydrogenase coupled assay
REPORTED_ENDPOINT: log10 of EC50 (log10 of the value in nM)

>  <MOLECULAR_STRING>
CNC(=O)Nc1cc(Oc2cncc(OC)c2)c([C@H]2COCCC2(F)F)cn1

>  <NUMERIC_RESULT>
3.00

$$$$
>  <MOLECULAR_STRING>
CNC(=O)Nc1cc(Oc2cncc(C)c2)c([C@H]2C[C@@H](O)C2)cn1

>  <NUMERIC_RESULT>
2.15

$$$$
>  <MOLECULAR_STRING>
CNC(=O)Nc1cc(Oc2cncc(C)c2)c([C@H]2C[C@@H](CO)C2)cn1

>  <NUMERIC_RESULT>
1.85

$$$$
>  <MOLECULAR_STRING>
CNC(=O)Nc1cc(Oc2cncc(C)c2)c(CCCCO)cn1

>  <NUMERIC_RESULT>
1.75

$$$$
>  <MOLECULAR_STRING>
CNC(=O)Nc1cc(Oc2cncc(C)c2)c([C@H]2C[C@H](O)C2)cn1

>  <NUMERIC_RESULT>
2.04

$$$$
>  <MOLECULAR_STRING>
CNC(=O)Nc1cc(Oc2cncc(C)c2)c(CCCO)cn1

>  <NUMERIC_RESULT>
2.00

$$$$
>  <MOLECULAR_STRING>
CNC(=O)Nc1cc(Oc2cncc(OC)c2)c([C@H]2COCC[C@@H]2F)cn1

>  <NUMERIC_RESULT>
2.26

$$$$
>  <MOLECULAR_STRING>
CNC(=O)Nc1cc(Oc2cncc(OC)c2)c([C@@H]2CCCOC2)cn1

>  <NUMERIC_RESULT>
2.04

$$$$
>  <MOLECULAR_STRING>
CNC(=O)Nc1cc(Oc2cncc(OC)c2)c([C@@H]2CCCN(C)C2)cn1

>  <NUMERIC_RESULT>
3.46

$$$$
>  <MOLECULAR_STRING>
CNC(=O)Nc1cc(Oc2cncc(C)c2)c(CCO)cn1

>  <NUMERIC_RESULT>
2.52

$$$$

----------
Recorded Ratio by entry
target: UniProtKB P35557; experiment: Activation of human recombinant glucokinase assessed as Vmax ratio using 0.16 to 80 mM of glucose as substrate in presence of NAD+ by glucose 6-phosphate dehydrogenase coupled assay relative to control
REPORTED_ENDPOINT: Ratio

>  <COMPOUND>
CNC(=O)Nc1cc(Oc2cncc(C)c2)c([C@H]2C[C@@H]2CO)cn1 (relative stereo)

>  <REPORTED_ENDPOINT>
Ratio

>  <NUMERIC_RESULT>
1

$$$$
>  <COMPOUND>
CNC(=O)Nc1cc(Oc2cncc(C)c2)c(CCCO)cn1

>  <REPORTED_ENDPOINT>
Ratio

>  <NUMERIC_RESULT>
0.96

$$$$
>  <COMPOUND>
CNC(=O)Nc1cc(Oc2cncc(C)c2)c([C@@H]2CC[C@@H](O)C2)cn1

>  <REPORTED_ENDPOINT>
Ratio

>  <NUMERIC_RESULT>
0.94

$$$$
>  <COMPOUND>
CNC(=O)Nc1cc(Oc2cncc(OC)c2)c([C@@H]2CCOC2)cn1

>  <REPORTED_ENDPOINT>
Ratio

>  <NUMERIC_RESULT>
1.1

$$$$
>  <COMPOUND>
CNC(=O)Nc1cc(Oc2cncc(OC)c2)c(C2=CCOCC2)cn1

>  <REPORTED_ENDPOINT>
Ratio

>  <NUMERIC_RESULT>
1

$$$$
>  <COMPOUND>
CNC(=O)Nc1cc(Oc2cncc(C)c2)c([C@H]2C[C@@H](CO)C2)cn1

>  <REPORTED_ENDPOINT>
Ratio

>  <NUMERIC_RESULT>
0.82

$$$$
>  <COMPOUND>
CNC(=O)Nc1cc(Oc2cncc(C)c2)c(C(C)CO)cn1 (stereo unspecified)

>  <REPORTED_ENDPOINT>
Ratio

>  <NUMERIC_RESULT>
0.95

$$$$
>  <COMPOUND>
CNC(=O)Nc1cc(Oc2cncc(OC)c2)c([C@@H]2CCCN(C)C2)cn1

>  <REPORTED_ENDPOINT>
Ratio

>  <NUMERIC_RESULT>
0.78

$$$$
>  <COMPOUND>
CNC(=O)Nc1cc(Oc2cncc(OC)c2)c([C@@H]2CCCOC2)cn1

>  <REPORTED_ENDPOINT>
Ratio

>  <NUMERIC_RESULT>
0.94

$$$$
>  <COMPOUND>
CNC(=O)Nc1cc(Oc2cncc(OC)c2)c([C@H]2COCC[C@@H]2F)cn1

>  <REPORTED_ENDPOINT>
Ratio

>  <NUMERIC_RESULT>
1

$$$$
>  <COMPOUND>
CNC(=O)Nc1cc(Oc2cncc(C)c2)c([C@H]2C[C@](C)(O)C2)cn1

>  <REPORTED_ENDPOINT>
Ratio

>  <NUMERIC_RESULT>
0.71

$$$$
>  <COMPOUND>
CNC(=O)Nc1cc(Oc2cncc(C)c2)c([C@]2(O)C[C@H](O)C2)cn1

>  <REPORTED_ENDPOINT>
Ratio

>  <NUMERIC_RESULT>
0.88

$$$$
>  <COMPOUND>
CNC(=O)Nc1cc(Oc2cncc(C)c2)c([C@H]2C[C@@H](O)C2)cn1

>  <REPORTED_ENDPOINT>
Ratio

>  <NUMERIC_RESULT>
0.97

$$$$
>  <COMPOUND>
CNC(=O)Nc1cc(Oc2cncc(C)c2)c([C@H]2C[C@@H]2C(C)(C)O)cn1 (relative stereo)

>  <REPORTED_ENDPOINT>
Ratio

>  <NUMERIC_RESULT>
0.87

$$$$
>  <COMPOUND>
CCOCCc1cnc(NC(=O)NC)cc1Oc1cncc(C)c1

>  <REPORTED_ENDPOINT>
Ratio

>  <NUMERIC_RESULT>
0.84

$$$$
>  <COMPOUND>
CNC(=O)Nc1cc(Oc2cncc(OC)c2)c(C2=CCCOC2)cn1

>  <REPORTED_ENDPOINT>
Ratio

>  <NUMERIC_RESULT>
0.99

$$$$

Entry source: ChEMBL document CHEMBL4425164
